Measured attribute: melting point

Compound: CCOC(=O)N1CCN(c2ncc(F)c(SC)n2)CC1
melting point: 110 to 112 °C
//
Compound: CC(=O)C(C)(C)c1nsc2ccc(-n3c(=O)cc(C(F)(F)F)n(C)c3=O)cc12
melting point: 195 to 196 °C
//
Compound: Cc1ccc(C(=O)Nc2ccccc2C(=O)NCCc2ncc[nH]2)cc1
melting point: 209 to 214 °C

Turning to the following compound.
Fill in: melting point of "CN(C(=O)OC(C)(C)C)c1cc(Oc2ccc(-c3nnn(C(c4ccccc4)(c4ccccc4)c4ccccc4)n3)cc2)ccc1[N+](=O)[O-]" is ___
161 to 163 °C

Every entry's value here was drawn from a melting point compilation (Tetko et al.; mined from patent text by program, amines drawn as free bases though some values may be those of a salt).
